- System: HEK293
- assay_name: Cytotoxicity against HEK293 cells after 48 hrs by XTT assay
- Assay type: cell-based
- assay_context: human, hek293, 48 h; read-out: LC50 (the source's name)
endpoint_label: CC50 (µM)
Could you give me the number in µM? Just the number is fine.

(Q) CC50 lookup needed for `GENTAMICIN` , thanks.
(A) 2500

====

- System: Ribosome
- assay_name: Induction of ribosome to readthrough in-frame UAG codon of renilla/firefly IDUA Q70X nonsense mutant gene transfected in rabbit reticulocyte assessed as reduction in overall translation at 5 to 20 uM […] dual-luciferase reporter gene assay
- Format: subcellular
- assay_context: Oryctolagus cuniculus
endpoint_label: inhibition (%)
Could you give me the number in %? Just the number is fine.

Worked cases, answers included:
>>> obs_value("C[C@H](O)[C@H]1O[C@H](O[C@H]2[C@H](O[C@@H]3O[C@H](CN)[C@@H](O)[C@H]3O)[C@@H](O)[C@H](NC(=O)[C@@H](O)CCN)C[C@@H]2N)[C@H](N)[C@@H](O)[C@@H]1O")
50
>>> obs_value("NCC[C@H](O)C(=O)N[C@@H]1C[C@H](N)[C@@H](O[C@H]2O[C@H](CO)[C@@H](O)[C@H](O)[C@H]2N)[C@H](O[C@@H]2O[C@H](CN)[C@@H](O)[C@H]2O)[C@H]1O")
10

(Q) Write down the reported inhibition of `C[C@H](O)[C@H]1O[C@H](O[C@H]2[C@H](O[C@@H]3O[C@H](CN)[C@@H](O)[C@H]3O)[C@@H](O)[C@H](N)C[C@@H]2N)[C@H](N)[C@@H](O)[C@@H]1O` , test system: Ribosome.
(A) 10

(Q) Write down the reported inhibition of `NC[C@H]1O[C@@H](O[C@@H]2[C@@H](O)[C@H](N)C[C@H](N)[C@H]2O[C@H]2O[C@H](CO)[C@@H](O)[C@H](O)[C@H]2N)[C@H](O)[C@@H]1O` , test system: Ribosome.
(A) 10

Origin of values: ChEMBL document CHEMBL1165913
